- assay-overview: E. coli growth modulation, two-sided OD650, primary screen, E. coli filamentation project, strain DRC41, 24 h (AID 1093);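 further: MC1000 strain lacking acrAB efflux and sulA so SOS filamentation is blocked; test concentration not given here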
- condition-notes: OD650, 24 h, higher = more signal, called active from +8 up or from −8 down
The reader will find reported z-score values listed item by item below.
// no unit, no text: just the number

* CCOC(=O)C[C@H]1[C@H](OC(=O)c2ccc(-c3ccccc3)cc2)[C@@H](NC(=O)c2ccc3ccccc3c2)c2cc(OCCCO)ccc2N1C(=O)c1ccccc1 | -1.1
* C=CCOC(=O)[C@H]1[C@@H]2C(=O)O[C@@H](c3ccccc3)[C@@H](c3ccccc3)N2[C@@H](c2ccc(OCCOC(=O)[C@H]3C[C@H]4C(=O)NCC(=O)N4[C@H]3c3ccc(O)cc3)cc2)[C@]12C(=O)Nc1ccc(I)cc12 | 0.47

Item COC(=O)[C@@]1(Cc2ccc(OC)cc2)[C@@H]2[C@@H](CC(=O)[C@H]2CC(=O)C(=O)N2CCCC2)CN1C(=O)c1ccccc1 : provide z-score -0.455

# return recorded z-score for entry [N-]=[N+]=NCc1ccccc1C[C@]1(C(=O)N2CCCCC2)N=C(c2ccc(OCCCO)cc2)O[C@H]1c1ccccc1 1.31

Answer with reported z-score of [N-]=[N+]=NCc1ccccc1[C@H]1OC(c2ccc(OCCCO)cc2)=N[C@@]1(Cc1ccccc1)C(=O)N1CCOCC1 -0.522

Annotate the compound C[C@@H](OCc1ccccc1)C1NC(=O)[C@@]23C(=O)N[C@@H](Cc4ccccc4)C2[C@H](C)[C@@]2(C)O[C@H]2C3/C=C/C/C=C\CNC(=O)[C@H](Cc2ccccc2)NC1=O (stereo not given in full) with its measured z-score. 1.29

For the compound CC(C)C(=C=CC[C@@H](O)c1ccccc1OCCO)C[C@@H](O)c1cc(Cl)cc(Cl)c1O , give its reported z-score. -0.101

Let me know recorded z-score for COCCOC(=O)N1C(=O)[C@@]2(c3ccccc31)[C@H](C(=O)N1CCCCCCC1)[C@H]1C(=O)O[C@H](c3ccccc3)[C@H](c3ccccc3)N1[C@@H]2c1ccc(O)cc1 , thanks. 1.39

Tell me z-score reported for NC(=O)N1C(=O)C2C(C1=O)C1C=C(CCCO)C2C(c2ccc(CN3CCCC3)cc2)N1Cc1cccc(OC(F)(F)F)c1 (stereo not given) 0.489

Answer with the recorded z-score for the compound listed here: COC(=O)[C@@]1(CCS(=O)(=O)c2ccccc2)N=C(c2ccc(OCCCO)cc2)O[C@H]1c1ccccc1N=[N+]=[N-] 0.96

====

- assay-overview: yeast growth modulation, basal conditions, primary screen, YJM789 clinical isolate, OD600, 24 h (AID 1089);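 further: growth of clinical yeast isolate S. cerevisiae YJM 789 seeded 1000 cells per well; test concentration not given here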
- condition-notes: S. cerevisiae YJM789 growth, higher = more signal, called active from +8 up or from −8 down
Lab note: compare z-score against 0.1. Equal or greater, write label 1. Smaller, write label 0.

Reference set, count: 5
- C=CCNC(=O)[C@@H]1[C@H]2C(=O)O[C@H](c3ccccc3)[C@H](c3ccccc3)N2[C@H](c2ccc(O)cc2)[C@@]12C(=O)Nc1ccc(C#CC3(O)CCCCCC3)cc12: label 1
- CC(=O)NCCCC[C@@H]1NC(=O)[C@@H]2C[C@H](C(=O)NCCCCCC[N+](C)(C)C)[C@H](c3ccc(O)cc3)N2C1=O: label 1
- N#Cc1ccc(C(O)C2C=CC3C(=O)NC(=O)C3N2Nc2ccccn2)cc1 (stereo unspecified): label 0
- CN(C)CCCC[C@@H]1NC(=O)[C@@H]2C[C@H](C(=O)NCCCCCCNC(=O)CS)[C@H](c3cccc(OCCO)c3)N2C1=O: label 0
- CC(C)C[C@@H]1NC(=O)[C@H]2C[C@@H](C(=O)NCCCCCCNC(=O)CS)[C@@H](c3ccc(O)cc3)N2C1=O: label 1

Is it the case that N#Cc1ccc(C(O)C2C=CC3C(=O)N(c4ccccc4)C(=O)C3N2Nc2ccc([N+](=O)[O-])cc2)cc1 (stereo unspecified) has z-score reaching or exceeding 0.1? label 0

====

- System: Human papillomavirus type 1a E7 protein (residues 1-88)
- assay-overview: HPV1a E7 small-molecule binders, primary screen, biochemical, small-molecule microarray, residues 1-88, 635 nm (AID 1129)
- condition-notes: small-molecule microarray binding, fluorescence 635 nm; higher = more signal
readout: composite z-score
Reply with just the number.

Let me know recorded composite z-score for CC#CCO[Si](C#CCCCCCC)(C(C)C)C(C)C , thanks. -0.419

Identify the reported composite z-score for the following entry. [N-]=[N+]=NCc1ccccc1C[C@]1(C(=O)NCc2ccccc2)N=C(c2ccc(OCCCO)cc2)O[C@H]1c1ccccc1CN=[N+]=[N-] 0.986

Report composite z-score, nothing else, for this compound: COc1ccc([Si](C)(C)[C@H]2[C@H](CC(=O)N3Cc4ccccc4C[C@H]3CO)O[C@@]3(C(=O)N(Cc4cccc(N5C(=O)c6cccc7cccc5c67)c4)c4ccccc43)[C@@H]2C)cc1 1.16

Please indicate composite z-score recorded for CC(C)(C)OC(=O)CC[C@]1(C(=O)N2CCOCC2)N=C(c2ccc(OCCCO)cc2)O[C@H]1c1ccccc1CN=[N+]=[N-] 1.29

For the compound C=CC[C@]1(C(=O)N(C)C)COC(c2ccc(OCCCO)cc2)=N1 , give its reported composite z-score. 1.09

State its composite z-score: CC(C)C(=C=CC[C@@H](O)c1cccc(OCCO)c1)CCO 0.0895

Give recorded composite z-score. COCCOC(=O)N1C(=O)[C@@]2(c3cc(C#CCC(C(=O)OC)C(=O)OC)ccc31)[C@H](C(=O)N1CCCCCCC1)[C@H]1C(=O)O[C@H](c3ccccc3)[C@H](c3ccccc3)N1[C@@H]2c1ccccc1OCCO 1.18

====

Each entry below lists one item and its recorded composite z-score value.
- tgt: E3 ubiquitin-protein ligase XIAP (Homo sapiens)
- assay-overview: XIAP binders, primary screen, biophysical, small-molecule microarray, fluorescence 635 nm (AID 1181);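 further: score merges 667 nm emission and signal to noise over triplicate slides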
- condition-notes: small-molecule microarray binding, higher = more signal
Keep it simple and answer with nothing but the number.

Record excerpt, results attached:
* CC(c1ccccc1)C(O)C1C=CC2C(=O)N(c3ccccc3)C(=O)C2N1Nc1ccc(C#N)cc1 (configuration not stated) | 0.332
* C=CCC(OC(C)=O)[C@@H]1[C@@H](N(Cc2ccc(-c3ccccc3)cc2)C(=O)c2ccc(-c3ccccc3)cc2)c2cc(OCCCO)ccc2N1C(=O)c1ccc2ccccc2n1 (some centres not stated) | -0.0103
* COc1ccccc1CN1C(=O)c2ccccc2[C@@H](C(=O)NCCCN(C)C)[C@@H]1c1ccc(CO)cc1 | -0.0426
* O=C1c2ccccc2[C@](Cc2ccccc2I)(C(=O)O)[C@H](c2ccc(CO)cc2)N1Cc1ccccc1 | 0.147
* C#CCN=C(N)N | 0.155

Please supply the value of reported composite z-score for the item O=C1O[C@@H](c2ccccc2)[C@@H](c2ccccc2)N2[C@@H](c3ccc(O)cc3)[C@]3(C(=O)Nc4ccc(C#CC5=CCCCC5)cc43)[C@@H](C(=O)N3CCCCCCC3)[C@H]12 0.691

Using known records, supply composite z-score for O=C1NC(=O)C2C1C=CC(C(O)c1ccc(F)cc1)N2Nc1ccccn1 (configuration not stated) 0.172

====

As shown below, each of these compounds has a reported composite z-score value.
- assay-overview: binders of probe aHhip on microarray, primary screen, stem cell growth factor project, biochemical, small-molecule microarray, fluorescence 635/667 (AID 1087);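 further: score merges spot fluorescence at 667nm with spot signal to noise ratio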
- condition-notes: higher = more signal
Write the value as a bare number.

Use the examples below as a reference point.
• C[N+](C)(C)CCCCCCNC(=O)[C@@H]1C[C@@H]2C(=O)N[C@@H](Cc3ccccc3)C(=O)N2[C@@H]1c1ccc(O)cc1 = 0.0373
• C[C@]1(C(=O)NCC(F)(F)F)c2ccccc2C(=O)N(Cc2ccc(OC(F)(F)F)cc2)[C@H]1c1ccc(CO)cc1 = -0.0645

Moving on to another compound below.
Tell me its composite z-score given COC(=O)[C@@]1(Cc2ccc(OC)cc2)[C@@H]2[C@@H](CC(=O)[C@H]2CC(=O)C(=O)N2CCCC2)CN1C(=O)c1ccccc1 as the entry. 2.65

====

- System: Chordin-like protein 2 (CHRDL2)
- assay-overview: CHRDL2 small-molecule binders, primary screen, biochemical, small-molecule microarray, 635 nm fluorescence (AID 1126);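 further: printed compound slides probed with Chrdl2 protein at 4 µg/mL for 1 h at 4 C; score merges 667 nm emission intensity with signal to noise over three replicate slides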
- condition-notes: small-molecule microarray binding, fluorescence 635 nm; higher = more signal
# cutoff 0.1 applies to composite z-score; >= gives MET, < gives NOT MET

• CC(C)(C)OC(=O)CC[C@]1(C(N)=O)N=C(c2ccc(OCCCO)cc2)O[C@H]1c1ccccc1CN=[N+]=[N-] = NOT MET
• CC(C)[Si](C#CCCCC#N)(O[C@H](c1ccccc1)c1cn([C@H](C)c2ccccc2)nn1)C(C)C = MET
• CN(C)C(=O)[C@]1(Cc2ccccc2CN=[N+]=[N-])N=C(c2ccc(OCCCO)cc2)O[C@@H]1c1ccccc1N=[N+]=[N-] = NOT MET
• CCCCCCCCCCC(O)C1C=CC2C(=O)N(C)C(=O)C2N1N1CCCCC1 (stereo not given) = NOT MET
• N#Cc1ccc(C(O)C2C=CC3C(=O)N(c4ccccc4)C(=O)C3N2Nc2ccc([N+](=O)[O-])cc2)cc1 (stereo not given) = NOT MET

Textbook exercise: given the entry C=CCC(OC(C)=O)[C@@H]1[C@@H](N(Cc2cc3ccccc3o2)C(=O)c2ccc(-c3ccccc3)cc2)c2cc(OCCCO)ccc2N1C(=O)c1ccc2ccccc2n1 (stereo not given in full) , state whether its composite z-score is greater than or equal to 0.1. MET

Is reported composite z-score greater than or equal to 0.1 here: CN1C(=O)[C@]2(CCC(=O)OC(C)(C)C)N=C(c3ccc(OCCCO)cc3)O[C@@H]2c2ccccc21 MET

Please check the record CC(C)CNC(=O)[C@@H]1c2ccccc2C(=O)N(Cc2ccccc2)[C@H]1c1ccc(CO)cc1 and state if its composite z-score is at or above 0.1. NOT MET

State whether the measured composite z-score reaches 0.1, counting equality as reaching it, for CCOC(=O)C1=CC[C@@H](c2ccc(F)cc2)N(S(=O)(=O)c2ccc(C)cc2)[C@H]1c1ccc([N+](=O)[O-])cc1 NOT MET

Check if composite z-score >= 0.1 (inclusive). Item: C=C(/C(=C/C[C@@H](OC(C)=O)c1ccccc1OCCO)c1cc(C(=O)OC)ccc1OC)C(C)C NOT MET
